The entries below are paired with their reported concentration at 8 h.
- assayDetails: In vivo PK, oral gavage, plasma
- Parameters: species or system Rat (SD)
- conditionSummary: SD, rat, plasma, po, 5 mg/kg, Rat (SD), 8 hr, BQL = below quantitation limit (1.00 ng/mL), read-out: Plasma concentration, mean
- Source text: Table 20 provides results of in vitro and in vivo pharmacokinetics performed for each of the represented compounds. Tables 4 and 5 depict the summary of rat plasma sample concentrations after administration of ADG I-204. FIG. 6 provides a summary of rat plasma and brain concentrations.
measureName: concentration at 8 h (ng/mL)

molecule="COCCNC(=O)Nc1ccc2nc(-c3cccs3)c(-c3cccs3)nc2c1 [ADG-205c]" measured=354
molecule="CNC(=O)Nc1ccc2nc(-c3cccs3)c(-c3cccs3)nc2c1 [ADG-206]" measured=12.2

----------
- assayDetails: In vivo PK, oral gavage, plasma
- Parameters: species or system Rat (SD)
- conditionSummary: SD, rat, plasma, po, 5 mg/kg, Rat, 0.250 hr, BQL limit 1.00 ng/mL, read-out: Plasma concentration, individual animal
measureName: concentration at 0.25 h (ng/mL)

entrysmiles=CNC(=O)Nc1ccc2nc(-c3cccs3)c(-c3cccs3)nc2c1 measurename="concentration at 0.25 h" measurementunit=ng/mL measured=1.47

----------
- assayDetails: In vivo PK, IV dose, Terminal - brain (brain availability)
- Parameters: species or system Rat (SD)
- conditionSummary: SD, rat, brain, iv, 1 mg/kg, Rat (SD), 4 hr, BQL limit 10.0 ng/g (204, 206), 20.0 ng/g (205, 207), read-out: Brain concentration, mean
measureName: concentration at 4 h

compound="COCCNC(=O)Nc1ccc2nc(-c3cccs3)c(-c3cccs3)nc2c1 [ADG-205c]" measurename="concentration at 4 h" measured="23.4 ng/g"

----------
The entries below are paired with their reported Protein binding, plasma: % Protein free.
- assayDetails: Protein binding via Rapid Equilibrium Dialysis - plasma
- Type: in vitro ADME
- conditionSummary: Rat (SD) plasma, 2 μM
measureName: Protein binding, plasma: % Protein free (% Protein free)

compound="CC(=O)CC(c1ccccc1)c1c(O)c2ccccc2oc1=O (centres unmarked) [Warfarin, reference compound]" measurementunit="% Protein free" measured=0.5177
compound="CCCCCNC(=O)Nc1ccc2nc(-c3cccs3)c(-c3cccs3)nc2c1 [ADG-204]" measurementunit="% Protein free" measured=0.1994
compound="COCCNC(=O)Nc1ccc2nc(-c3cccs3)c(-c3cccs3)nc2c1 [ADG-205c]" measurementunit="% Protein free" measured=0.2915
compound="CNC(=O)Nc1ccc2nc(-c3cccs3)c(-c3cccs3)nc2c1 [ADG-206]" measurementunit="% Protein free" measured=0.6565
compound="O=C(Nc1ccc2nc(-c3cccs3)c(-c3cccs3)nc2c1)NC12CC3CC(CC(C3)C1)C2 [ADG-207]" measurementunit="% Protein free" measured=0.9428

----------
- assayDetails: In vivo PK, oral gavage, plasma
- Design: species or system Rat (SD)
- conditionSummary: SD, rat, plasma, po, 5 mg/kg, Rat (SD), 24 hr, BQL = below quantitation limit (1.00 ng/mL), read-out: Plasma concentration, mean
measureName: concentration at 24 h (ng/mL)

compound="COCCNC(=O)Nc1ccc2nc(-c3cccs3)c(-c3cccs3)nc2c1 [ADG-205c]" measurename="concentration at 24 h" measured=3.06

----------
The entries below are paired with their reported concentration at 24 h.
- assayDetails: In vivo PK, IV dose, plasma
- Parameters: species or system Rat (SD)
- conditionSummary: SD, rat, plasma, iv, 1 mg/kg, Rat (SD), 24 hr, terminal, BQL limit 1.00 ng/mL (ADG I-205: 2.00 ng/mL), read-out: Plasma concentration, mean
measureName: concentration at 24 h (ng/mL)

compound="CCCCCNC(=O)Nc1ccc2nc(-c3cccs3)c(-c3cccs3)nc2c1 [ADG-204]" measurementunit=ng/mL measured=1.52
compound="COCCNC(=O)Nc1ccc2nc(-c3cccs3)c(-c3cccs3)nc2c1 [ADG-205c]" measurementunit=ng/mL measured=2.63

----------
- assayDetails: In vivo PK, oral gavage, plasma
- Set-up: species or system Rat (SD)
- conditionSummary: SD, rat, plasma, po, 5 mg/kg, Rat (SD), 0.5 hr, BQL = below quantitation limit (1.00 ng/mL), read-out: Plasma concentration, mean
The entries below are paired with their reported concentration at 0.5 h.
measureName: concentration at 0.5 h

compound=CNC(=O)Nc1ccc2nc(-c3cccs3)c(-c3cccs3)nc2c1 measurename="concentration at 0.5 h" measured="2.32 ng/mL"
compound="COCCNC(=O)Nc1ccc2nc(-c3cccs3)c(-c3cccs3)nc2c1 [ADG-205c]" measurename="concentration at 0.5 h" measured="371 ng/mL"

----------
- assayDetails: In vivo PK, IV dose, Terminal - brain (brain availability)
- Set-up: species or system Rat (SD)
- conditionSummary: SD, rat, brain, iv, 1 mg/kg, Rat, 1.00 hr, read-out: Brain concentration, individual animal
measureName: concentration at 1 h

molecule=CNC(=O)Nc1ccc2nc(-c3cccs3)c(-c3cccs3)nc2c1 measured="68.8 ng/g"
molecule=O=C(Nc1ccc2nc(-c3cccs3)c(-c3cccs3)nc2c1)NC12CC3CC(CC(C3)C1)C2 measured="53.6 ng/g"
molecule="COCCNC(=O)Nc1ccc2nc(-c3cccs3)c(-c3cccs3)nc2c1 [ADG-205c]" measured="132 ng/g"

----------
The entries below are paired with their reported concentration at 0.5 h.
- assayDetails: In vivo PK, IV dose, plasma
- Set-up: species or system Rat (SD)
- conditionSummary: SD, rat, plasma, iv, 1 mg/kg, Rat (SD), 0.500 hr, not a terminal time point (animals 4, 5 and 6)
measureName: concentration at 0.5 h (ng/mL)

compound="CCCCCNC(=O)Nc1ccc2nc(-c3cccs3)c(-c3cccs3)nc2c1 [ADG-204]" measurename="concentration at 0.5 h" measured=1730
compound="COCCNC(=O)Nc1ccc2nc(-c3cccs3)c(-c3cccs3)nc2c1 [ADG-205c]" measurename="concentration at 0.5 h" measured=3790
compound="O=C(Nc1ccc2nc(-c3cccs3)c(-c3cccs3)nc2c1)NC12CC3CC(CC(C3)C1)C2 [ADG-207]" measurename="concentration at 0.5 h" measured=608
compound="CNC(=O)Nc1ccc2nc(-c3cccs3)c(-c3cccs3)nc2c1 [ADG-206]" measurename="concentration at 0.5 h" measured=2780

----------
- assayDetails: Turbidity-based aqueous solubility
- Format: physicochemical
- conditionSummary: aqueous solution (composition not given), kinetic from dmso stock, read-out: highest soluble concentration
- Description: Table 20 provides results of in vitro and in vivo pharmacokinetics performed for each of the represented compounds.
measureName: solubility

compound="COCCNC(=O)Nc1ccc2nc(-c3cccs3)c(-c3cccs3)nc2c1 [ADG-205c]" measured="5 µM"
compound="CCCCCNC(=O)Nc1ccc2nc(-c3cccs3)c(-c3cccs3)nc2c1 [ADG-204]" measured="2 µM"
compound="CNC(=O)Nc1ccc2nc(-c3cccs3)c(-c3cccs3)nc2c1 [ADG-206]" measured="5 µM"
compound="O=C(Nc1ccc2nc(-c3cccs3)c(-c3cccs3)nc2c1)NC12CC3CC(CC(C3)C1)C2 [ADG-207]" measured="5 µM"

----------
- assayDetails: In vivo PK, IV dose, Terminal - brain (brain availability)
- Parameters: species or system Rat (SD)
- conditionSummary: SD, rat, brain, iv, 1 mg/kg, Rat, 4.00 hr, BQL limit 10.0 ng/g (204, 206), 20.0 ng/g (205, 207), read-out: Brain concentration, individual animal
measureName: concentration at 4 h

molecule="COCCNC(=O)Nc1ccc2nc(-c3cccs3)c(-c3cccs3)nc2c1 [ADG-205c]" measurename="concentration at 4 h" measured="23.4 ng/g"

----------
The entries below are paired with their reported concentration at 24 h.
- assayDetails: In vivo PK, IV dose, plasma
- Design: species or system Rat (SD)
- conditionSummary: SD, rat, plasma, iv, 1 mg/kg, Rat, 24.0 hr, terminal, BQL limit 1.00 ng/mL (ADG I-205: 2.00 ng/mL), read-out: Plasma concentration, individual animal
measureName: concentration at 24 h (ng/mL)

compound=CCCCCNC(=O)Nc1ccc2nc(-c3cccs3)c(-c3cccs3)nc2c1 measured=1.95
compound="COCCNC(=O)Nc1ccc2nc(-c3cccs3)c(-c3cccs3)nc2c1 [ADG-205c]" measured=2.63

----------
- assayDetails: Microsomal stability assay (half-life), mouse
- Type: in vitro ADME
- conditionSummary: Mouse (CD1) microsomes, read-out: Microsomal stability T1/2
measureName: half-life at 2 μM

compound="CCOc1ccc2ccc(=O)oc2c1 [7-Ethoxycoumarin, reference compound]" measured="< 15 min"
compound="O=C(Nc1ccc2nc(-c3cccs3)c(-c3cccs3)nc2c1)NC12CC3CC(CC(C3)C1)C2 [ADG-207]" measured="5.5 min"
compound="CCCCCNC(=O)Nc1ccc2nc(-c3cccs3)c(-c3cccs3)nc2c1 [ADG-204]" measured="301 min"
compound="COCCNC(=O)Nc1ccc2nc(-c3cccs3)c(-c3cccs3)nc2c1 [ADG-205c]" measured="4.72 min"
compound="CNC(=O)Nc1ccc2nc(-c3cccs3)c(-c3cccs3)nc2c1 [ADG-206]" measured="4.39 min"

Numbers sourced from patent US20220117958A1.
